- TARGET_OF_ASSAY: purified recombinant human FGFR2 protein (Homo sapiens (Human))
- Sequence (P21802 22-821): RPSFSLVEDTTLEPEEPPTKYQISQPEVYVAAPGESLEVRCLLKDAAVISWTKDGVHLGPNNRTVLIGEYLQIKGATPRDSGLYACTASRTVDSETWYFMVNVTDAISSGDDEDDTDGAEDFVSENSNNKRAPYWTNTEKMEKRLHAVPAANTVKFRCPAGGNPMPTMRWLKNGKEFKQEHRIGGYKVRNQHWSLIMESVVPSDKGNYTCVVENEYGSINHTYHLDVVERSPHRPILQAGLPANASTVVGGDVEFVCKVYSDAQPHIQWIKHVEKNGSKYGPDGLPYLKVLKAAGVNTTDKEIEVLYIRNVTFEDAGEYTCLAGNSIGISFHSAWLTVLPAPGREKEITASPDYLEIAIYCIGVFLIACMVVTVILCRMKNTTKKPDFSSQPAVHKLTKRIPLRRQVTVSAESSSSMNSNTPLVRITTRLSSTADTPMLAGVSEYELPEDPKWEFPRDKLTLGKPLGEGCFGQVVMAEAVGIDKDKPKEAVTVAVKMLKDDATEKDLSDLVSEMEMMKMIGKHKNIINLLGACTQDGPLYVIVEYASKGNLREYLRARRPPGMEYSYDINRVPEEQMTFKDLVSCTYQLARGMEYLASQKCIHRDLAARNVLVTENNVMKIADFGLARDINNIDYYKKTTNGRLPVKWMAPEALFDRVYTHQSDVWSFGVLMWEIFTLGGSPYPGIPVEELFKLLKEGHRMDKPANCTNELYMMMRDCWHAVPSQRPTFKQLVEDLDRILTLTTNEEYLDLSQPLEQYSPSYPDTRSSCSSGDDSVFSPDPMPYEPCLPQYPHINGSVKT
- EXPERIMENT_DESCRIPTION: Inhibitory effect on FGFR2 kinase activity
- EXPERIMENTAL_SETUP: ATP 75 μM
pIC50: −log10 of the molar value.
MEASUREMENT_KIND: pIC50

What reported pIC50 corresponds to CC(C)c1cc(C#Cc2nn([C@H]3CCN(C(=O)/C=C/CN(C)C)C3)c3ncnc(N)c23)cc(C(C)C)c1 [Ref. Ex. Compound 4] on purified recombinant human FGFR2 protein (Homo sapiens (Human))?
< 5.00

meta.source: patent US10894048B2
